biological target: T1, 2M; test: flow cytometry on peptide-pulsed T2 cells, scFv 100 nM
T1 construct: also called HLA-A2 / point-mutant NY-ESO peptide 2M complex on T2 cells
property_label: standardized gMFI
Format: numeric value only, no unit, no commentary.

-- ask Request the reported standardized gMFI associated with NYA-2047 (scFv) scFv: GQVQLVESGGGVVQPGRSLRLSCAASGFSIRSYDMHWVRQAPGKGLEWVATISYDGSQKYYADSVKGRFTISRDNSKNTLYLQMSSLRAEDTAVYHCARGSSGHYEAFDIWGQGTLVTVSSGGGGSGGGGSGGGGSQSVLTQPPSVSAAPGQKVTISCSGSSSNIGNWYVSWYQQLPGTAPKLLIYDNNKRPSGIPDRFSGSKSGTSATLGITGLQTGDEADYYCGTWDSSLSAPWVFGGGTKVTVLGAAAGAGGDYKDDDDKGAAAHHHHHH
-- reply 7.34

-- ask Another binder to check: NYA-2035 (scFv) scFv: GEVQLVESGGGVVQPGRSLTPSCSASGFSIRSYDIHWVRLAPGKGLEWVATISYDGSQKYFADSVKGRFTIFRDESENMVYLQMSGLRVEDTAVYHCARGSSGHYEAFDIWGQGTMVTVSSGGGGSGGGGSGGGGSQSVLTQPPSVSAAPGQKVTISCSGSSSNIGNWKVSWYQQLPGTAPKLLIYDNNKRPSGIPDRFSGSKSGTSATLGITGLQTGDEADYYCGTWDSSLSAPWVFGGGTKVTVLGAAAGAGGDYKDDDDKGAAAHHHHHH
-- reply 8.8

-- ask Another binder to check: NYA-2044 (scFv, also called NYA-2044 tag adduct) scFv: GEVQLVESGGGLVQPGGSLRLSCAASGFSIRSYDIHWVRLAPGKGLEWVATISYDGSQKYYADSVKGRFTISRDESKNTLYLQMNSLRAEDTAVYHCARGSSGHYEAFDIWGQGTLVTVSSGGGGSGGGGSGGGGSQSVLTQPPSVSAAPGQKVTISCSGSSSNIGNWYVSWYQQLPGTAPKLLIYDNNKRPSGIPDRFSGSKSGTSATLGITGLQTGDEADYYCGTWDSSLSAPWVFGGGTKVTVLGAAAGAGGDYKDDDDKGAAAHHHHHH
-- reply 13.5

-- ask Another binder to check: NYA-2060 (scFv, also called NYA-2060 tag adduct) scFv: GEVQLVESGGGLVQPGGSLRLSCAASGFSIRSYDIHWVRQAPGKGLEWVATISYDGSQKYYADSVKGRFTISRDESKNTLYLQMNSLRAEDTAVYHCARGSSGHYEAFDIWGQGTLVTVSSGGGGSGGGGSGGGGSQSVLTQPPSVSAAPGQKVTISCSGSSSNIGNWYVSWYQQLPGTAPKLLIYDNNKRPSGIPDRFSGSKSGTSATLGITGLQTGDEADYYCGTWDSSLSAPWVFGGGTKVTVLGAAAGAGGDYKDDDDKGAAAHHHHHH
-- reply 6.93

-- ask Another binder to check: NYC-0004 (scFv, not shown: small tags and cut ends, also called T1 scFv; NYC-0004 tag adduct) scFv: EVQLLESGGGLVQPGGSLRLSCAASGFTFSTYQMSWVRQAPGKGLEWVSGIVSSGGSTAYADSVKGRFTISRDNSKNTLYLQMNSLRAEDTAVYYCAGELLPYYGMDVWGQGTTVTVSSGGGGSGGGGSGGGGSQSELTQPRSVSGSPGQSVTISCTGTERDVGGYNYVSWYQQHPGKAPKLIIHDVIERSSGVPDRFSGSKSGNTASLTISGLQAEDEADYYCWSFAGGYYVFGTGTDVTVL
-- reply 5.66

-- ask Another binder to check: NYA-2027 (scFv) scFv: GEVQLVESGGGVVQPGRSLTPSCSASGFSIRSYDIHWVRQAPGKGLEWVATISYDGSQKYFADSVKGRFTIFRDESENMVYLQMSGLRVEDTAVYHCARGSSGHYEAFDIWGQGTMVTVSSGGGGSGGGGSGGGGSQSVLTQPPSVSAAPGQKVTISCSGSSSNIGNNYVSWYQQLPGTAPKLLIYDNNKRPSGIPDRFSGSKSGTSATLGITGLQTGDEADYYCGSWDSSLSAPWVFGGGTKVTVLGAAAGAGGDYKDDDDKGAAAHHHHHH
-- reply 7.84
